Data provenance is patent US20120058499.

Target: T1, Z-Arg-Leu-Arg-Gly-Gly (SEQ ID NO: 1)-amino-luciferin
T1 chain: RLRGG
Items are presented alongside their recorded Signal to Background, luminescence, DUB 10 nM.
readout.kind: Signal to Background, luminescence, DUB 10 nM

# protein, readout.value
rows = [
    ("UCHL5 (protein) MTGNAGEWCLMESDPGVFTELIKGFGCRGAQVEEIWSLEPENFEKLKPVHGLIFLFKWQPGEEPAGSVVQDSRLDTIFFAKQVINNACATQAIVSVLLNCTHQDVHLGETLSEFKEFSQSFDAAMKGLALSNSDVIRQVHNSFARQQMFEFDTKTSAKEEDAFHFVSYVPVNGRLYELDGLREGPIDLGACNQDDWISAVRPVIEKRIQKYSEGEIRFNLMAIVSDRKMIYEQKIAELQRQLAEEEPMDTDQGNSMLSAIQSEVAKNQMLIEEEVQKLKRYKIENIRRKHNYLPFIMELLKTLAEHQQLIPLVEKAKEKQNAKKAQETK", "1.4 S/B"),
    ("Otubain2 (Otub2) (protein) MSETSFNLISEKCDILSILRDHPENRIYRRKIEELSKRFTAIRKTKGDGNCFYRALGYSYLESLLGKSREIFKFKERVLQTPNDLLAAGFEEHKFRNFFNAFYSVVELVEKDGSVSSLLKVFNDQSASDHIVQFLRLLTSAFIRNRADFFRHFIDEEMDIKDFCTHEVEPMATECDHIQITALSQALSIALQVEYVDEMDTALNHHVFPEAATPSVYLLYKTSHYNILYAADKH", "1.3 S/B"),
    ("Ataxin3-like (protein) MDFIFHEKQEGFLCAQHCLNNLLQGEYFSPVELASIAHQLDEEERMRMAEGGVTSEEYLAFLQQPSENMDDTGFFSIQVISNALKFWGLEIIHFNNPEYQKLGIDPINERSFICNYKQHWFTIRKFGKHWFNLNSLLAGPELISDTCLANFLARLQQQAYSVFVVKGDLPDCEADQLLQIISVEEMDTPKLNGKKLVKQKEHRVYKTVLEKVSEESDESGTSDQDEEDFQRALELSRQETNREDEHLRSTIELSMQGSSGNTSQDLPKTSCVTPASEQPKKIKEDYFEKHQQEQKQQQQQSDLPGHSSYLHERPTTSSRAIESDLSDDISEGTVQAAVDTILEIMRKNLKIKGEK", "1.5 S/B"),
    ("JosD2 (protein) MSQAPGAQPSPPTVYHERQRLELCAVHALNNVLQQQLFSQEAADEICKRLAPDSRLNPHRSLLGTGNYDVNVIMAALQGLGLAAVWWDRRRPLSQLALPQVLGLILNLPSPVSLGLLSLPLRRRHWVALRQVDGVYYNLDSKLRAPEALGDEDGVRAFLAAALAQGLCEVLLVVTKEVEEKGSWLRTD", "2.1 S/B"),
]
